Data provenance: patent US11319324B2

# assaySystem: human P2X2/3 receptors (Homo sapiens, UniProt P56373+Q9UBL9)
# Construct: expressed in transfected cells; host or cells: human astrocytoma 1321N1 (1312N1 [sic])
# measurementProtocol: Intracellular calcium measurement, antagonist activity at human P2X2/3 receptors (hP2X23 1321N1), Fluo8
# Assay type: cell-based
# experimentalContext: ratio of column 4) hP2X2/3 to column 3) hP2X3, 1321N1
Below, each entry is listed alongside its reported hP2X23/hP2X3* Selectivity (1321N1).

CCc1cc2n(CC(=O)Nc3ccc(F)cn3)c3c(c(=O)n2n1)CN(CC1CCNC1)C3=O.Cl (centres unmarked) :: >49
COC[C@H](C)N1Cc2c(n(CC(=O)Nc3ccc(F)cn3)c3cc(C(F)(F)F)nn3c2=O)C1=O :: >160
CCc1cc2n(CC(=O)Nc3ccccn3)c3c(c(=O)n2n1)CN(C(C)C)C3=O :: >74
CCc1cc2n(CC(=O)Nc3ccc(F)cn3)c3c(c(=O)n2n1)CN(CCN)C3=O :: >61
CC(C)N1Cc2c(n(CC(=O)Nc3ccc(F)cn3)c3cc(C(=O)NC4CC4)nn3c2=O)C1=O :: 79

Quick check: hP2X23/hP2X3* Selectivity (1321N1) of `COCCN1Cc2c(n(CC(=O)Nc3ccc(F)cn3)c3cc(C4CC4)nn3c2=O)C1=O` ?
243

Quick check: hP2X23/hP2X3* Selectivity (1321N1) of `CC(C)N1Cc2c(n(CC(=O)Nc3ccc(F)cn3)c3cc(C(=O)NC4CCCC4)nn3c2=O)C1=O` ?
84

Quick check: hP2X23/hP2X3* Selectivity (1321N1) of `Cc1ccc(NC(=O)Cn2c3c(c(=O)n4nc(C(C)C)cc24)CN(C(C)C)C3=O)nc1` ?
>76

###

# assaySystem: human P2X3 receptor (Homo sapiens, UniProt P56373)
# Sequence (P56373 1-397): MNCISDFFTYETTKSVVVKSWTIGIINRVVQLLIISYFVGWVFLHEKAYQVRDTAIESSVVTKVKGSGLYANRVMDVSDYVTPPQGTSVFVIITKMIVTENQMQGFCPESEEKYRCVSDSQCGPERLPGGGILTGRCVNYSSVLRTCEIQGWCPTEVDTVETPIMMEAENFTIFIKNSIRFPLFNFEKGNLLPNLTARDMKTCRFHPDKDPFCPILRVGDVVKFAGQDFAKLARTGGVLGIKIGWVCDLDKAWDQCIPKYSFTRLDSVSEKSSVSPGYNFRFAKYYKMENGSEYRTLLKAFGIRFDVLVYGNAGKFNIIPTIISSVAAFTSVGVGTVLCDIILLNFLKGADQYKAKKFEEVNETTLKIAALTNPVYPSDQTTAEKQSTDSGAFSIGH
# measurementProtocol: Intracellular calcium measurement to assess antagonist activity at human P2X3 receptors (hP2X3 CHO), photina luminescence
# Type: cell-based
# Design: expressed in transfected cells; host or cells: Chinese hamster ovary (CHO) cells
# experimentalContext: column 2), CHO cells, agonist α,β-methylene-ATP at EC50
# Procedure: 2) Intracellular Calcium Measurement to Assess Antagonist Activity at Human P2X3 Receptors (hP2X3 CHO) The determination of antagonistic activity at the P2X3 receptor of the compounds of the invention was performed by use of a recombinant cell line. […] The strength of the photina luminescence signal corresponds to the level of receptor activation upon agonist binding. […]
readoutType: IC50 (nM)

CCc1cc2n(CC(=O)Nc3ccc(F)cn3)c3c(c(=O)n2n1)CN(CC(=O)NC(C)C)C3=O :: 112
Cc1ccc(NC(=O)Cn2c3c(c(=O)n4nc(C(C)(C)C)cc24)CN([C@@H](C)C(C)C)C3=O)nc1 :: 750
CCc1cc2n(CC(=O)Nc3ccc(F)cn3)c3c(c(=O)n2n1)CN(C1CCNC1)C3=O (single isomer, unassigned) [Example 278] :: 650
Cc1cc(-c2cc3n(CC(=O)Nc4ccc(F)cn4)c4c(c(=O)n3n2)CN(C(C)C)C4=O)c(C)cn1 :: 13

P. CC(C)N1Cc2c(n(CC(=O)Nc3ccc(F)cn3)c3cc(C4CCN(S(=O)(=O)CC(F)(F)F)C4)nn3c2=O)C1=O (stereo not shown)
Q. CC(C)N1Cc2c(n(CC(=O)Nc3ccc(F)cn3)c3cc(C(=O)N(C)CC4CC4)nn3c2=O)C1=O
R. CC(C)N1Cc2c(n(CC(=O)Nc3ccc(F)cn3)c3cc(C4CCOCC4)nn3c2=O)C1=O
Sort the compounds on IC50; start with the lowest figure. Write the labels out in the order the request specifies.
Q, R, P
(Q: 11 nM, R: 24 nM, P: 81 nM)
